- Tested on: HCT-116 colon
- measurement.description: NCI tumour cell line growth inhibition, 48 h
measured.attribute: TGI

TGI recorded for this molecule, COc1cc(-c2oc3c(OC)c(O)c(OC)c(O)c3c(=O)c2OC)cc(O)c1OC , is > 100 µM

Looking up COc1ccc(N2C(=O)C3ON(C(C(N)=O)c4ccccc4)C(c4ccc(-c5ccccc5)cc4)C3C2=O)cc1 (stereo unspecified) , I see its TGI listed as > 50 µM

N#CCCN(CCC#N)c1ccc(C(N=Nc2ccccc2)=Nc2ccccc2)cc1 has a reported TGI of > 100 µM

Record summary for O=C1OCC(c2cccs2)=C1Cl : reported TGI = > 100 µM

// recorded TGI for CCCCCC(O)C1C(=O)OC(C)C(O)/C=C/C=C/C=C/C=C\C=C(\C)C(O)CC(O)CC(O)CC(O)CC(O)CC(O)CC1O (stereo unspecified) : > 100 µM

Record CSc1cnn(CCC#N)c(=O)n1 , field TGI: > 100 µM
